Reported max response is given for each of the following molecules.
test system: CRL-7250; test: Cytotoxic Profiling of Annotated Libraries Using Quantitative High-Throughput Screening (AID 1296008); details: Five cell lines viability, CellTiter-Glo ATP luminescence, 48-72 h; active compounds read low; note: % is set by controls: 0 for no effect and ±100 for the full control effect; nearly all actives have a fitted effect of over 60% in size
Inconclusive results are not listed. Active and inactive are the calls of the source. Calls come from the whole dose curve; as a rule, active = well fitted inhibition curve with a large enough effect; inconclusive = small, poorly fitted or top-dose-only effect; inactive = flat fitted curve, though single readings scatter.

COc1cc(C(=O)O[C@H]2[C@@H]3C=CO[C@@H](O[C@@H]4O[C@H](CO)[C@@H](O)[C@H](O)[C@H]4O)[C@@H]3[C@@]3(CO)O[C@@H]23)ccc1O	-1.79% (inactive)

Task: Write down the reported max response of CC(C)=C1CC[C@]23CO[C@H](C2)[C@@](O)(C(=O)O)CCC13 (some centres undefined) , test system: CRL-7250.
Result: 4.82% (inactive)

Task: And for CC(N)Cc1c[nH]c2ccccc12 (centres undefined) ?
Result: -5.98% (inactive)

Task: Again, but for `CN1C(=O)c2ccccc2NC(=O)[C@]12O[C@@H]2c1ccccc1`
Result: -12.4% (inactive)

Task: Now the molecule CN(C(=O)Cc1ccccc1)C(CN1CCCC1)c1ccccc1 (centres undefined)
Result: 0.97% (inactive)

Task: And the next one, `CN1[C@H]2C[C@H](OC(=O)[C@H](CO)c3ccccc3)C[C@@H]1[C@@H](O)C2` ?
Result: -1.08% (inactive)

Task: Also check `CC(C)(O)[C@H]1O[C@H]2CC[C@@]3(C)[C@@](O)(CC[C@H]4Cc5c([nH]c6ccccc56)[C@@]43C)C2=CC1=O`
Result: -14.1% (inactive)

Task: Next molecule: `CCc1[nH]c2ccc(OC)cc2c1CCN(C)C`
Result: 2.45% (inactive)

Task: Then what about the molecule `CCCCCCn1c(=O)c(C(=O)Nc2ccc(C(=O)OCCC)cc2)c(O)c2ccccc21` ?
Result: 0.836% (inactive)
